molecular target: MNK2 (Homo sapiens, UniProt Q9HBH9)
Sequence (Q9HBH9 whole entry): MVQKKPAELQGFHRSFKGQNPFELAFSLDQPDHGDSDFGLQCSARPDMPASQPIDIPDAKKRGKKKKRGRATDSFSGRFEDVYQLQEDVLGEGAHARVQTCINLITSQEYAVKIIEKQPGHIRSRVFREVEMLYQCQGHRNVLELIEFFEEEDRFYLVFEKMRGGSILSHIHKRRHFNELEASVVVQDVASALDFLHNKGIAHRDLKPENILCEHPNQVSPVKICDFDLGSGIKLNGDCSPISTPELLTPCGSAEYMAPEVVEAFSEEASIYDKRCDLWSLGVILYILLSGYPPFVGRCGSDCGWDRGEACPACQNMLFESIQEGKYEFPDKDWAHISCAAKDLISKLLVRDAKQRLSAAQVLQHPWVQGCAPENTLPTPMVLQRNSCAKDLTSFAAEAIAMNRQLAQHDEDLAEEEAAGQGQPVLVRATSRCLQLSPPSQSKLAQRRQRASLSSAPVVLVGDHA
assay-readout: pIC50
One number for each entry, as −log10 of the molar value.

Which pIC50 is listed for COc1cc(-c2cc(=O)c3c(O)cc(O)c(CC=C(C)C)c3o2)ccc1O [FBL-03G] ? 6.26

----------
molecular target: CSNK2A1 (Homo sapiens)
Sequence (P68400 whole entry): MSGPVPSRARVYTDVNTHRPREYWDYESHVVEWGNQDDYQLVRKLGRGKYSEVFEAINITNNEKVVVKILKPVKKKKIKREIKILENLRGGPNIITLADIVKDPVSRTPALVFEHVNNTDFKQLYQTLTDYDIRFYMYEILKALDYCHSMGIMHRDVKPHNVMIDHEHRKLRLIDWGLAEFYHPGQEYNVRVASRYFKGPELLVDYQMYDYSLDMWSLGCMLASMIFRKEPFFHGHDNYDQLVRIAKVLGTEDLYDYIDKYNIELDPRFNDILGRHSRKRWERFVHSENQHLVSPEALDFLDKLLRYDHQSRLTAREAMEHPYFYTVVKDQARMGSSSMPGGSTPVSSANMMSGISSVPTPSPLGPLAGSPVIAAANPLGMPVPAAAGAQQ
assay-readout: pIC50
One number for each entry, as −log10 of the molar value.

Which pIC50 is listed for COc1cc(-c2cc(=O)c3c(O)cc(O)c(CC=C(C)C)c3o2)ccc1O [FBL-03G] ? 7.70

----------
biological target: CSNK2A2 (Homo sapiens, UniProt P19784)
Sequence (P19784 whole entry): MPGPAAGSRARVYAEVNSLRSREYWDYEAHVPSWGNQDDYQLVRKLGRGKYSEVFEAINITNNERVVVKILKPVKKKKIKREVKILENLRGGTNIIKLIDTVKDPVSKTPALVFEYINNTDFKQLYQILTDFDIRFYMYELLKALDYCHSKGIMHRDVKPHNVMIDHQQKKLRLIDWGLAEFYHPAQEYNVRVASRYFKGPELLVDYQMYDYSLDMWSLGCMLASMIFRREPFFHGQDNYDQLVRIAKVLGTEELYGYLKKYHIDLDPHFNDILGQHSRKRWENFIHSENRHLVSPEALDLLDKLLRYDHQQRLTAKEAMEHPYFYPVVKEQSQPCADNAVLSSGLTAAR
assay-readout: pIC50
Answers are plain numbers, as −log10 of the molar value.

Which pIC50 is listed for COc1cc(-c2cc(=O)c3c(O)cc(O)c(CC=C(C)C)c3o2)ccc1O [FBL-03G] ? 8.40
